Origin of values: patent US20230322761A1

biological target: BTK (Homo sapiens); construct: endogenous in cells; host or cells: TMD-8 cells; test: BTK degradation in TMD-8 cells, HTRF assay after 6 h treatment; type: cell-based; settings: IC50 (DC50) of BTK degradation
Sequence (Q06187 whole entry): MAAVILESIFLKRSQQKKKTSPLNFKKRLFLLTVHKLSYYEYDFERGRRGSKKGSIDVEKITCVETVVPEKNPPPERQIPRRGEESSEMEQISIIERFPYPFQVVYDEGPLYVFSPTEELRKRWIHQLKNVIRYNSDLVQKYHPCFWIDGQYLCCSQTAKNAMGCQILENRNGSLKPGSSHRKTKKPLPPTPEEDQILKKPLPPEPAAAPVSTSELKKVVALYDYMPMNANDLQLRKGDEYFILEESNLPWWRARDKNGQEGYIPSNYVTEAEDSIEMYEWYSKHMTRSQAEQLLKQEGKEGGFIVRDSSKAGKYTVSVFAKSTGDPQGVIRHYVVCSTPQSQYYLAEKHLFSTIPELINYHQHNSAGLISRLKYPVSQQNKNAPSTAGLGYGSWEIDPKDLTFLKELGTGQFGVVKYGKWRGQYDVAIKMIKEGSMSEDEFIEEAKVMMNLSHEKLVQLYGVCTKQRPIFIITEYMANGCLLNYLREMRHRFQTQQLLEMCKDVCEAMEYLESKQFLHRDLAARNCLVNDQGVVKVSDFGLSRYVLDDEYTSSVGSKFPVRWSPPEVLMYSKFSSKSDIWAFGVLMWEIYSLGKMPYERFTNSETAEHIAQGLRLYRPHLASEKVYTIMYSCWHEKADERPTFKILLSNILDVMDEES
reported.metric: DC50 (nM)

Answered cases to consult:
molecule	DC50 [nM]
Cc1cc(CCN2CCN(c3ccc(-c4cnc5[nH]nc(-c6ccc([C@@H](C)NC(=O)c7noc(C(C)(C)C)n7)c(C)c6)c5c4)nc3)CC2)ncc1C1CCC(=O)NC1=O (some centres unmarked)	2.11
Cc1cc(-c2n[nH]c3ncc(-c4ccc(N5CCN(CCc6ccc(C7CCC(=O)NC7=O)c(F)c6)CC5)cc4)cc23)ccc1[C@@H](C)NC(=O)c1noc(C(C)(C)C)n1 (some centres unmarked)	3

P = Cc1cc(-c2n[nH]c3ncc(-c4ccc(C5CCN(CCc6ccc(C7CCC(=O)NC7=O)c7c6CCCC7)CC5)cc4)cc23)ccc1CNC(=O)c1nc(C(C)(C)C)no1 (centres unmarked)
Q = Cc1cc(-c2n[nH]c3ncc(-c4ccc(C5CCN(CCc6ccc(N7CCC(=O)NC7=O)cc6)CC5)cc4)cc23)ccc1CNC(=O)c1noc(C(C)(C)C)n1
R = Cc1cc(-c2n[nH]c3ncc(-c4ccc(N5CCN(CCc6ccc(C7CCC(=O)NC7=O)cn6)CC5)cc4)cc23)ccc1CNC(=O)c1noc(C(C)(C)C)n1 (centres unmarked)
Order the records so the highest DC50 appears first and the lowest last. Form entry: labels listed in requested order.
P, Q, R
(P: 28.9 nM, Q: 2.94 nM, R: 0.427 nM)
